Attribution: PubChem BioAssay (NCI)

Reported TGI by item:
- Tested on: SK-OV-3 ovarian
- procedureDetails: NCI tumour cell line growth inhibition, 48 h

Known TGI results, listed for orientation:
{"compound": "COc1ccc(OC)c(/C=C/c2nc(=S)n(-c3ccc(Cl)cc3)[nH]2)c1", "TGI": "> 100 µM"}
{"compound": "N#CC(C(=O)C(=O)Nc1c(Cl)cccc1Cl)c1ccccc1 (centres undefined)", "TGI": "> 100 µM"}
{"compound": "CC(C)Oc1cccc(N2C(n3ccnc3)=Nc3ccncc3S2(=O)=O)c1", "TGI": "31.8 µM"}
{"compound": "[N-]=[N+]=CC(=O)C1CCCN1C(=O)c1ccccc1 (centres undefined)", "TGI": "> 10 µM"}
{"compound": "COc1cc(C)c(CC/C(C)=C/Cc2cc(O)ccc2O)c(C)c1C", "TGI": "> 25 µM"}

*Q* Can you look up TGI on SK-OV-3 ovarian for "O=C(Nc1ccc(N=C=S)cc1Cl)c1cc(Br)cc(Br)c1O" ?
*A* > 100 µM

*Q* Can you look up TGI on SK-OV-3 ovarian for CC(C)C(Br)CCC1=CCC(Br)(Br)C1 (centres undefined) ?
*A* 28.1 µM

*Q* Can you look up TGI on SK-OV-3 ovarian for "OC1(c2ccc(Cl)c(C(F)(F)F)c2)CCN(CCCC(c2ccc(F)cc2)c2ccc(F)cc2)CC1" ?
*A* 3.17 µM
